Test system: SW-620 colon
Assay: NCI-60 one-dose screen, 48 h
Conditions: 10 µM unless noted
About 83,000 compounds went through this panel and 20% of them were active in at least one assay; those are over-represented in the sample as a whole. Calls of active or inactive are those of the source. How the source made its calls: active means growth percent below 10; inactive means the rest.
API: response.call in active, inactive

In: What was the test verdict on COc1cc2cc(Oc3ccc(NC(=O)Nc4ccc(Cl)c(C(F)(F)F)c4)cc3)c(C)nc2cc1OCCN1CCCCC1 ?
Out: active

In: What was the test verdict on O=[N+]([O-])c1cc2c(cc1Br)C1C(C3C2C(Cl)(Cl)C(Cl)=C(Cl)C3(Cl)Cl)C(Cl)(Cl)C(Cl)=C(Cl)C1(Cl)Cl (stereo not drawn) ?
Out: inactive

In: What was the test verdict on O=S(=O)(Nc1ccccc1Cl)c1ccc(-c2cnc(C3CC3)o2)cc1 ?
Out: inactive

* * *

For each entry below, report its growth value.
Test system: TK-10 renal
Assay: NCI-60 one-dose screen, 48 h (100 = growth as untreated, 0 = no growth, -100 = all killed)
Settings: 10 µM unless noted
Compounds without any hit were thinned out: in the full panel of roughly 83,000, 20% have a hit. Calls of active or inactive are those of the source. How the source made its calls: active means growth percent below 10; inactive means the rest.

In: Could you share which growth value was measured for CC(=O)N(CC(O)CO)c1c(I)c(C(=O)NCCO)c(I)c(C(=O)NCC(O)CO)c1I (stereo not given) ?
Out: 114% (inactive)

In: Could you share which growth value was measured for COc1ccc(/C=N/NC(=O)c2cnn(CC(O)Cc3ccccc3)c2N)cc1OC1CCCC1 (stereo not given) ?
Out: 99.4% (inactive)

In: Could you share which growth value was measured for COc1cc(-c2ccc3cc(OC)c(OC)c(OC)c3c2)cc(OC)c1OC ?
Out: 85.7% (inactive)

In: Could you share which growth value was measured for COc1ccc(/C=C2\CN(Cc3cn(CCCNc4ccnc5cc(Cl)ccc45)nn3)C/C(=C\c3ccc(OC)cc3)C2=O)cc1 ?
Out: 94.9% (inactive)

In: Could you share which growth value was measured for O=S(=O)(Nc1ccc(Cl)c(Cl)c1)c1ccc(-c2cnc(C3CC3)o2)cc1 ?
Out: 51.3% (inactive)

In: Could you share which growth value was measured for Cc1ccc(S(=O)(=O)c2ccc3[nH]c(=O)[nH]c(=O)c3c2)cc1 ?
Out: 93.8% (inactive)

In: Could you share which growth value was measured for COc1ccc(CSc2nc3cc(OC)c(OC)cc3c(=O)n2-c2ccc(Cl)cc2)cc1 ?
Out: 116% (inactive)

In: Could you share which growth value was measured for Clc1ccc(C2=NN(c3ccccc3)[C@H](c3cn(-c4ccccc4)nc3-c3ccccc3)C2)cc1 ?
Out: 114% (inactive)

In: Could you share which growth value was measured for COC(=O)c1c2c(c(C)[n+]([O-])c1C)C(=O)C=C(NCc1ccc(F)c(Cl)c1)C2=O ?
Out: 21.2% (inactive)

In: Could you share which growth value was measured for Nc1cccc2c(=S)c3ccccc3[nH]c12 ?
Out: 192% (inactive)

In: Could you share which growth value was measured for COc1nc2c(cc1S(=O)(=O)c1ccccc1)CCc1c-2cnn1-c1ccccc1Cl ?
Out: 42.2% (inactive)

In: Could you share which growth value was measured for O=C(c1cnn2c1NC(c1ccc(F)cc1)C2)N1CCCCC1 (stereo not given) ?
Out: 105% (inactive)

In: Could you share which growth value was measured for C=C[C@H]1C[C@@H]2C[C@@H]3[C@H]4C/C=C\C(=O)NCCCC5NC(=O)C(=C(O)/C=C/[C@@H]4CC(=O)[C@H]3[C@@H]2[C@H]1C)C5=O (stereo not given in full) ?
Out: -94.5% (active)

In: Could you share which growth value was measured for O=C1CN2CCC1C/C2=C\c1ccnc2c(Cl)cccc12 (stereo not given) ?
Out: 127% (inactive)

In: Could you share which growth value was measured for COc1cc(/C=N/NC(=O)c2cnn3c2NC(c2ccccc2)C3)cc(OC)c1OC (stereo not given) ?
Out: 85.7% (inactive)

* * *

Test system: OVCAR-5 ovarian
Test: NCI-60 one-dose screen, 48 h (100 = growth as untreated, 0 = no growth, -100 = all killed)
Details: 10 µM unless noted
Experimental: Growth inhibition of the OVCAR-5 human tumor cell line is measured as a screen for anti-cancer activity. Cells are grown in 96 well plates and exposed to the test compound for 48 hours. Compounds are tested at a single concentration, which is 10^-5 M for most compounds. The reported endpoint is percent growth (GI% or GIPRCNT), where numbers from 0 - 100% represent growth inhibition, and numbers from -100% - 0 represent cell death. For example, a value of 40 represents 60% growth inhibition. […]
The panel holds about 83,000 compounds, 20% with a hit somewhere; the sample as a whole holds those more often.
endpoint: growth (%)
Give the value, in units of %, as a plain number.

In: What reported growth corresponds to CC1=CN2C(=NC3=C(CCCC/C3=C\c3ccccc3)C2c2ccccc2)S1 (configuration not stated) on OVCAR-5 ovarian?
Out: 106

In: What reported growth corresponds to COc1ccc(-n2ncc3c2ccc2cc(S(=O)(=O)c4ccccc4)c(=O)n(C)c23)cc1 on OVCAR-5 ovarian?
Out: 98.4

In: What reported growth corresponds to Cc1nn2c(-c3nc4ccc(Cl)cc4[nH]3)c(-c3ccc(F)cc3)nc2s1 on OVCAR-5 ovarian?
Out: 98.5

In: What reported growth corresponds to NC(=O)c1cccc(-n2ccc3cc(NC(=O)Nc4ccc(Cl)c(Cl)c4)ccc32)n1 on OVCAR-5 ovarian?
Out: 106

In: What reported growth corresponds to C=C(C)COC(=O)c1ccccc1C(=O)OCC1(C)CO1 (configuration not stated) on OVCAR-5 ovarian?
Out: 96.8

In: What reported growth corresponds to COc1ccc(/C=C(\C#N)c2cc3ccccc3n2C)cc1 on OVCAR-5 ovarian?
Out: 39.7

In: What reported growth corresponds to O=C(C[Si](CC(=O)c1cccc(C(F)(F)F)c1)CC(=O)c1cccc(C(F)(F)F)c1)c1cccc(C(F)(F)F)c1 on OVCAR-5 ovarian?
Out: 91.4

In: What reported growth corresponds to COc1ccc(-c2csc3c2-n2cccc2C3=O)cc1O on OVCAR-5 ovarian?
Out: 84.5

In: What reported growth corresponds to CCOC(=O)c1cn2c3c(cc(F)cc3c1=O)C(CC)c1ccccc1C2 (configuration not stated) on OVCAR-5 ovarian?
Out: 104

In: What reported growth corresponds to O=c1ccc2ccccc2o1 on OVCAR-5 ovarian?
Out: 104

In: What reported growth corresponds to O=[N+]([O-])c1ccc2nc(N/N=C/c3ccc(O)cc3)sc2c1 on OVCAR-5 ovarian?
Out: 113

In: What reported growth corresponds to Nc1ccccc1-c1n[nH]c(=O)[nH]c1=O on OVCAR-5 ovarian?
Out: 109

In: What reported growth corresponds to O=C(CCc1nnc2sc(-c3ccccc3)nn12)c1nc2ccccc2[nH]1 on OVCAR-5 ovarian?
Out: 116

In: What reported growth corresponds to O=C(c1ccc2ncc(-c3nc(NC4CC4)ncc3F)n2c1)N1CCOCC1 on OVCAR-5 ovarian?
Out: 9.93

In: What reported growth corresponds to Clc1ccc2c(N3CCN(c4ccnc(NC5CCCCC5)n4)CC3)ccnc2c1 on OVCAR-5 ovarian?
Out: 80.8

In: What reported growth corresponds to COc1ccc(-c2c3c(N)c4c(nc3nc3c2c(C)nn3-c2ccccc2)CCCCC4)cc1 on OVCAR-5 ovarian?
Out: 86.3

In: What reported growth corresponds to COc1ccc(-c2nc3sc(C)cn3c2/C=C/C(=O)c2cc(OC)c(OC)c(OC)c2)cc1 on OVCAR-5 ovarian?
Out: 113

In: What reported growth corresponds to COc1ncc(F)c(OC)n1 on OVCAR-5 ovarian?
Out: 97.9

In: What reported growth corresponds to CC1SC(c2cccc(Oc3ccccc3)c2)N(CCc2cccs2)C1=O (configuration not stated) on OVCAR-5 ovarian?
Out: -13.9

In: What reported growth corresponds to COc1cccc(OC)c1OC(=O)c1ccccc1 on OVCAR-5 ovarian?
Out: 107

In: What reported growth corresponds to COC(=O)c1c2c(c(C)[n+]([O-])c1C)C(=O)C=C(NCc1cccc(Cl)c1)C2=O on OVCAR-5 ovarian?
Out: -87.2

In: What reported growth corresponds to CC(=O)Nc1ccc(Sc2ccc([N+](=O)[O-])o2)cc1 on OVCAR-5 ovarian?
Out: 94.8

In: What reported growth corresponds to CN1CCc2cccc3c2C1Cc1ccc(O)c(O)c1-3 (configuration not stated) on OVCAR-5 ovarian?
Out: 88.3

In: What reported growth corresponds to O=C1C(Br)=C(c2ccccc2)C(=O)C(Br)=C1c1ccccc1 on OVCAR-5 ovarian?
Out: 96.7

In: What reported growth corresponds to COc1cccc2c(=O)c3c(sc12)c(NCCN(C)C)nc1ccccc13 on OVCAR-5 ovarian?
Out: 40.8

In: What reported growth corresponds to NC(=O)c1cc(I)ccc1NC(=O)COc1ccccc1 on OVCAR-5 ovarian?
Out: 39.1

In: What reported growth corresponds to COc1ccc(C2=NOC(CC(=O)N(CCO)CCO)C2)cc1OC1CCCC1 (configuration not stated) on OVCAR-5 ovarian?
Out: 98.5

In: What reported growth corresponds to COc1ccc(OC2=C(C#N)C(=N)N3c4ccccc4Sc4ccccc4C3N2)cc1 (configuration not stated) on OVCAR-5 ovarian?
Out: 102

In: What reported growth corresponds to CN([N-]C(=O)CC(=O)[N-]N(C)C(=S)c1ccccc1)C(=S)c1ccccc1.[Cu+2] on OVCAR-5 ovarian?
Out: -53.4

In: What reported growth corresponds to COc1ccc2nc(-n3nc(C)cc3C)c(-n3nc(C)cc3C)nc2c1 on OVCAR-5 ovarian?
Out: 103

In: What reported growth corresponds to O=S(=O)(OCCO)c1ccccc1 on OVCAR-5 ovarian?
Out: 92

In: What reported growth corresponds to CN(C)c1ccc(/C=C(\C#N)c2cc3ccccc3n2C)cc1 on OVCAR-5 ovarian?
Out: 38.5
